Values compiled from patent US20040209799A1.

Target: LCK (Lymphoid T-cell protein tyrosine kinase) (Homo sapiens, UniProt P06239)
Sequence (P06239 whole entry, species assumed): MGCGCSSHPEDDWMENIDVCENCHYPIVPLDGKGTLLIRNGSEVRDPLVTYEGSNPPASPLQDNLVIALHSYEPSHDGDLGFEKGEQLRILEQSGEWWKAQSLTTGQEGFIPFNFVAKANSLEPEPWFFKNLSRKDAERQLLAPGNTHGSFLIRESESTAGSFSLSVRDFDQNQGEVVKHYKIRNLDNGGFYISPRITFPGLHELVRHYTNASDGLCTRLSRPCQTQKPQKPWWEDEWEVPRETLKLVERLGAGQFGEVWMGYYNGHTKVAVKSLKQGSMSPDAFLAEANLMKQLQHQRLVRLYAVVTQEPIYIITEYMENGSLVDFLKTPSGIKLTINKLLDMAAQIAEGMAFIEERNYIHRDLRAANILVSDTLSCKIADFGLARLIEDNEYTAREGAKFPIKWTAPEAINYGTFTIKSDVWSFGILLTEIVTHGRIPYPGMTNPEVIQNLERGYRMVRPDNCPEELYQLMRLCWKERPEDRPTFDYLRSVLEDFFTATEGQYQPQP
pIC50: −log10 of the molar value.
property_label: pIC50

Lab note: need pIC50 with LCK (Lymphoid T-cell protein tyrosine kinase) (Homo sapiens, UniProt P06239) for entry NC1=NC(=O)C(=C2CCNC(=O)c3[nH]ccc32)N1 [DBH-2FB] , please look it up.
≤ 2.71

* * *

Molecular target: BTK (Bruton's agarnrnaglobulinaemia tyrosine kinase) (Homo sapiens)
Sequence (Q06187 whole entry, species assumed): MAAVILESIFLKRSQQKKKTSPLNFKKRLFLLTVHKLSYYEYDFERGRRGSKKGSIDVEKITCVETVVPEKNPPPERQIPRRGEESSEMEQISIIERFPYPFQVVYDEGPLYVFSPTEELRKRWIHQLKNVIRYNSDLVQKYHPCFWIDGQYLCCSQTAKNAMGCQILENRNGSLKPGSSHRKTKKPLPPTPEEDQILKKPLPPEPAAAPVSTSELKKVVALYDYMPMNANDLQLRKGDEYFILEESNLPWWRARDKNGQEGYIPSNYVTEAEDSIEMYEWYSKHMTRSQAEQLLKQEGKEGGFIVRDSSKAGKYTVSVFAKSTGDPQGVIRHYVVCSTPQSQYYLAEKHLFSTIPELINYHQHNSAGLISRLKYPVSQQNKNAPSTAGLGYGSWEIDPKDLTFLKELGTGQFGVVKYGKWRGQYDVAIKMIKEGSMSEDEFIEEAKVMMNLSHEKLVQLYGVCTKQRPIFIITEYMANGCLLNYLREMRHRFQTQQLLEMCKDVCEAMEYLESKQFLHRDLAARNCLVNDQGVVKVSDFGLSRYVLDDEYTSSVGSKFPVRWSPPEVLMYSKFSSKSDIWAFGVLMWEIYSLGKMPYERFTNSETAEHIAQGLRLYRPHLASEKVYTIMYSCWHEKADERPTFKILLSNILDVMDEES
pIC50: −log10 of the molar value.
property_label: pIC50

Any idea what pIC50 came out for NC1=NC(=O)C(=C2CCNC(=O)c3[nH]ccc32)N1 on BTK (Bruton's agarnrnaglobulinaemia tyrosine kinase) (Homo sapiens)?
≤ 2.71
